# Target under test: Ephrin type-A receptor 7 (Homo sapiens); note: in the data inactive means no Kd found up to 30 µM
# Sequence (Q15375 whole entry): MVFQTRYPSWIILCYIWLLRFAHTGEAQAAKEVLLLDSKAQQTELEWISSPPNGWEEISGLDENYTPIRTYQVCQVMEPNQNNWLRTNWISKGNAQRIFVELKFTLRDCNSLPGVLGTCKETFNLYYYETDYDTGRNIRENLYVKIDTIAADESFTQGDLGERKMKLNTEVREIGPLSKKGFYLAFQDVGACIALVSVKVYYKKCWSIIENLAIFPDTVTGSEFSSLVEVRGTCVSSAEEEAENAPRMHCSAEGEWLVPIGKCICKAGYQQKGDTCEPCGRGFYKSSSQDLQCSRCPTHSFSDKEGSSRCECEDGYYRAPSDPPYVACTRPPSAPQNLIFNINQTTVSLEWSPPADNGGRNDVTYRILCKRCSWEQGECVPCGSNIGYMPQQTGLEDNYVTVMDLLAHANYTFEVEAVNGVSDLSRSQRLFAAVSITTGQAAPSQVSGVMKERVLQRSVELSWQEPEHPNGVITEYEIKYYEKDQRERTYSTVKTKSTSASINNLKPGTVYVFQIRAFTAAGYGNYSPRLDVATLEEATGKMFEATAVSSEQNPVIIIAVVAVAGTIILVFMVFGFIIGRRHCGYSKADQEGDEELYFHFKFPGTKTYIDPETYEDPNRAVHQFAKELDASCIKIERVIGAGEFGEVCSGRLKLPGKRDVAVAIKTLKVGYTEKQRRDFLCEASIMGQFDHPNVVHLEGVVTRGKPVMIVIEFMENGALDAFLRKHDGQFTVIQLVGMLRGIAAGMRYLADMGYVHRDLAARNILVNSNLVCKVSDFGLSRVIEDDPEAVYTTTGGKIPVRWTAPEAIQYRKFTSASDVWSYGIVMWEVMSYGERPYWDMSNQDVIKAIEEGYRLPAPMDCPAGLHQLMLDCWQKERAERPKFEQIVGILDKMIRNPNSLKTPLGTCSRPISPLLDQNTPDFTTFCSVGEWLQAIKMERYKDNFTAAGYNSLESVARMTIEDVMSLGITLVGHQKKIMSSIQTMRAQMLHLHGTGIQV
The source made the active and inactive calls.
Allowed answers: yes (1) = active, no (0) = inactive

See these solved cases before continuing.
Compound	Target under test	Classification
COc1c(OCCCN2CCOCC2)ccc2c1N=C(NC(=O)c1cnc(N)nc1)N1CCN=C21 [COPANLISIB]	Ephrin type-A receptor 7 (Homo sapiens)	no (0)
COc1ncc(-c2ccc3nccc(-c4ccnnc4)c3c2)cc1NS(=O)(=O)c1ccc(F)cc1F [OMIPALISIB]	Ephrin type-A receptor 7 (Homo sapiens)	no (0)
CCNC(=O)C#Cc1ccc2c(c1)NC(=O)/C2=C(\Nc1ccc(CN(C)C)cc1)c1ccccc1	Ephrin type-A receptor 7 (Homo sapiens)	no (0)
Cc1cc(Nc2ncc(Cl)c(Nc3ccccc3S(=O)(=O)C(C)C)n2)c(OC(C)C)cc1C1CCNCC1 [CERITINIB]	Ephrin type-A receptor 7 (Homo sapiens)	no (0)
CC(C)c1cc(CNc2nc(Nc3cc(C4CC4)[nH]n3)cc(N3CCN(C)CC3)n2)on1 [XL-228]	Ephrin type-A receptor 7 (Homo sapiens)	yes (1)

Hi, do you know how CO[C@H]1C[C@@H]2CC[C@@H](C)[C@@](O)(O2)C(=O)C(=O)N2CCCC[C@H]2C(=O)O[C@H]([C@H](C)C[C@@H]2CC[C@@H](OC(=O)C(C)(CO)CO)[C@H](OC)C2)CC(=O)[C@H](C)/C=C(\C)[C@@H](O)[C@@H](OC)C(=O)[C@H](C)C[C@H](C)/C=C/C=C/C=C/1C [TEMSIROLIMUS] came out in this test? no (0)

Hi, do you know how Cc1cc(Nc2ncnc3ccc(NC4=NC(C)(C)CO4)cc23)ccc1Oc1ccn2ncnc2c1 [TUCATINIB] came out in this test? no (0)

Hi, do you know how CCn1c(C(=O)N(C2CC2)C2CC2)cc2c3c(ncn3C)c(Nc3cc(C)n(C)n3)nc21 [BMS-911543] came out in this test? no (0)

Hi, do you know how CC(=O)NCC(=O)N1[C@@H]2CC[C@H]1c1ccc(Nc3ncc(C(F)(F)F)c(NC4CCC4)n3)cc12 [PF-03814735] came out in this test? no (0)

----------
# Target under test: Serine/threonine-protein kinase/endoribonuclease IRE1 (Homo sapiens, UniProt O75460); note: in the data inactive means no Kd found up to 30 µM
# Sequence (O75460 whole entry): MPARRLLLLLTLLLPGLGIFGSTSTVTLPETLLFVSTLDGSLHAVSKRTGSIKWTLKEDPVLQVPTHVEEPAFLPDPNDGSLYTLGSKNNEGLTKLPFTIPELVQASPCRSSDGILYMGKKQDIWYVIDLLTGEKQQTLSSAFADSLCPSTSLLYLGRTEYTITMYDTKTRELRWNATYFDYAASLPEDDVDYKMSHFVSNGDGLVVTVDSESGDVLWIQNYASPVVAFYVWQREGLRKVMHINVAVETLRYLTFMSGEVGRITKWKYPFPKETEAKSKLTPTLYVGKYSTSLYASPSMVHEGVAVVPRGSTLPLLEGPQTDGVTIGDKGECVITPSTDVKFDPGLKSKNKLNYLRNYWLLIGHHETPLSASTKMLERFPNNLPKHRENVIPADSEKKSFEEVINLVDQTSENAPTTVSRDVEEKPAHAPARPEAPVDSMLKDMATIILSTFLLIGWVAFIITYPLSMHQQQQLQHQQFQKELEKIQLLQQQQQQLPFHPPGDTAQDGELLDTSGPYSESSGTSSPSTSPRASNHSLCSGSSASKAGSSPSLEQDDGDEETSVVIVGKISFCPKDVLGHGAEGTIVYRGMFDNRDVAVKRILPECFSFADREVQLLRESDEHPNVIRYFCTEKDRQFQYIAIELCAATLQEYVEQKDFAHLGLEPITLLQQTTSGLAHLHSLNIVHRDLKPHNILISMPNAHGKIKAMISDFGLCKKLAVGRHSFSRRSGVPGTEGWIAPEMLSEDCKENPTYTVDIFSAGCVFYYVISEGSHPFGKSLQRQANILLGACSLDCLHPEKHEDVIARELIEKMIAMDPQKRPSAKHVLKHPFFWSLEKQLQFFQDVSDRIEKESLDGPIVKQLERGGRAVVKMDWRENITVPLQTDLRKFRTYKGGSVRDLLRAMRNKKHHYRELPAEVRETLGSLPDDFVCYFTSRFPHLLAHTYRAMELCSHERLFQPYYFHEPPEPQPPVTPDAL
Calls of active or inactive are those of the source.
Allowed answers: true (1) = active, false (0) = inactive

See these solved cases before continuing.
> print(dat)
                           structure.smiles  classification
1  FC(F)(F)c1ccc(/C=C/c2nc(COc3ccc(CCCCn4ccnn4)cc3)co2)cc1       false (0)
2  Cc1nc(Nc2n[nH]c3c2CN(C(=O)N[C@H](CN(C)C)c2ccccc2)C3(C)C)c2sccc2n1       false (0)

Hi, do you know how C[C@@H](NC(=O)c1ncnc(N)c1Cl)c1ncc(C(=O)Nc2cc(C(F)(F)F)c(Cl)cn2)s1 came out in this test? false (0)

Hi, do you know how O=C(Nc1cc(C(F)(F)F)cc(C(F)(F)F)c1)c1cc(Cl)ccc1O came out in this test? false (0)

Hi, do you know how CC(=O)NCC(=O)N1[C@@H]2CC[C@H]1c1ccc(Nc3ncc(C(F)(F)F)c(NC4CCC4)n3)cc12 came out in this test? true (1)

Hi, do you know how O=C(Nc1nc2cccc(-c3ccc(CN4CCS(=O)(=O)CC4)cc3)n2n1)C1CC1 came out in this test? false (0)

Hi, do you know how C[C@@H](Oc1cc(C(=O)Nc2ccc(C(=O)N3CCN(C)CC3)cc2)nnc1N)c1c(Cl)ccc(F)c1Cl came out in this test? false (0)

Hi, do you know how Cc1cc(Nc2ncc(Cl)c(Nc3ccccc3S(=O)(=O)C(C)C)n2)c(OC(C)C)cc1C1CCNCC1 came out in this test? false (0)

----------
Activity calls are given as the source filed them.
Recorded below: Kd, system Protein kinase C beta type (Homo sapiens, UniProt P05771). Note: in the data inactive means no Kd found up to 30 µM.

These solved cases illustrate the format of a correct answer.
Structure smiles	Result
N#CC[C@H](C1CCCC1)n1cc(-c2ncnc3[nH]ccc23)cn1	> 30 µM (inactive)
CO[C@H]1C[C@@H]2CC[C@@H](C)[C@@](O)(O2)C(=O)C(=O)N2CCCC[C@H]2C(=O)O[C@H]([C@H](C)C[C@@H]2CC[C@@H](OP(C)(C)=O)[C@H](OC)C2)CC(=O)[C@H](C)/C=C(\C)[C@@H](O)[C@@H](OC)C(=O)[C@H](C)C[C@H](C)/C=C/C=C/C=C/1C	> 30 µM (inactive)

The record that follows has no Kd shown yet.
Please state recorded Kd (tested on Protein kinase C beta type (Homo sapiens, UniProt P05771)) of COc1cc([C@@H]2c3cc4c(cc3[C@H](O)[C@H]3COC(=O)[C@@H]23)OCO4)cc(OC)c1OC > 30 µM (inactive)

----------
# Target under test: Serine/threonine-protein kinase ULK3 (Homo sapiens); note: in the data inactive means no Kd found up to 30 µM
# Sequence (Q6PHR2 whole entry): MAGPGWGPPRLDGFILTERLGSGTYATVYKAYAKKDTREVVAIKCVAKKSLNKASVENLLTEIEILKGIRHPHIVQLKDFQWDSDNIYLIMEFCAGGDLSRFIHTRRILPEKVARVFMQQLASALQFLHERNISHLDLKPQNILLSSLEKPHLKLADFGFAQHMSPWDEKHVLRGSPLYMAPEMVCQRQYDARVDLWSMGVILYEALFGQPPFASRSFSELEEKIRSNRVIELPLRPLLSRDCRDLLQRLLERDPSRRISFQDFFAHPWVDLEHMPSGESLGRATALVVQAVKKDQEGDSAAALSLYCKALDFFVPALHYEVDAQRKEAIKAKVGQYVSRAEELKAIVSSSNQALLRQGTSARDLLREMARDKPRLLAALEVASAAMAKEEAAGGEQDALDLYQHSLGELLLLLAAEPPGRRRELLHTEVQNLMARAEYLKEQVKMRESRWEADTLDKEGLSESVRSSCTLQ
The source made the active and inactive calls.
Allowed answers: YES for active, NO for inactive

See these solved cases before continuing.
> print(dat)
                                    molecule  classification
 1  CC(C)c1cc(CNc2nc(Nc3cc(C4CC4)[nH]n3)cc(N3CCN(C)CC3)n2)on1 [XL-228]             YES
 2  Cc1[nH]c(/C=C2\C(=O)Nc3ccccc32)c(C)c1CCC(=O)O [ORANTINIB]             YES
 3  Cc1nc2cc(-n3ncc(C(=O)c4cc5ccccc5[nH]4)c3N)ccc2[nH]1 [FGFR INHIBITOR DEBIO 1347]              NO
 4  C[C@@H](NC(=O)c1ncnc(N)c1Cl)c1ncc(C(=O)Nc2cc(C(F)(F)F)c(Cl)cn2)s1 [TOVORAFENIB]              NO
 5  CN1CCN(CCOc2cc(OC3CCOCC3)c3c(Nc4c(Cl)ccc5c4OCO5)ncnc3c2)CC1 [SARACATINIB]              NO
 6  C#Cc1cccc(Nc2ncnc3cc(OC)c(OCCCCCCC(=O)NO)cc23)c1 [CUDC-101]              NO
 7  Cc1nc(Nc2n[nH]c3c2CN(C(=O)N[C@H](CN(C)C)c2ccccc2)C3(C)C)c2sccc2n1 [PF-03758309]             YES
 8  Cn1ncc(Cl)c1-c1cc(C(=O)N[C@H](CN)Cc2ccc(F)c(F)c2)oc1Cl [UPROSERTIB]              NO
 9  Cc1cnc(NC(=O)Nc2cc(Br)c(C)cc2OC[C@@H]2CNCCO2)cn1 [RABUSERTIB]              NO
10  O=C(Nc1nc2cccc(-c3ccc(CN4CCS(=O)(=O)CC4)cc3)n2n1)C1CC1 [FILGOTINIB]              NO

Hi, do you know how C[C@@H](N)c1ccc(C(=O)Nc2ccnc3[nH]ccc23)cc1 [Y-39983] came out in this test? NO

Hi, do you know how CNC(=O)c1cccc2cc(Oc3ccnc4cc(OCC5(N)CC5)c(OC)cc34)ccc12 [LUCITANIB] came out in this test? NO

Hi, do you know how NC1(c2ccc(-c3nc4ccn5c(=O)[nH]nc5c4cc3-c3ccccc3)cc2)CCC1 [MK-2206] came out in this test? NO

Hi, do you know how Nc1ncnc2c1c(-c1cccc(OCc3ccccc3)c1)cn2[C@H]1C[C@@H](CN2CCC2)C1 [AEW-541] came out in this test? NO

Hi, do you know how COc1ccc(S(=O)(=O)N(C(C)=O)c2ccccc2/C=C/c2cc[n+]([O-])cc2)cc1 [HMN-214] came out in this test? NO

Hi, do you know how Cc1cccc(-c2nn3c(c2-c2ccnc4ccc(C(N)=O)cc24)CCC3)n1 [GALUNISERTIB] came out in this test? NO

Hi, do you know how Cc1cc(Nc2ncc(Cl)c(Nc3ccccc3S(=O)(=O)C(C)C)n2)c(OC(C)C)cc1C1CCNCC1 [CERITINIB] came out in this test? NO

----------
# Target under test: UniProtKB Q00537
# Sequence (Q00537 whole entry): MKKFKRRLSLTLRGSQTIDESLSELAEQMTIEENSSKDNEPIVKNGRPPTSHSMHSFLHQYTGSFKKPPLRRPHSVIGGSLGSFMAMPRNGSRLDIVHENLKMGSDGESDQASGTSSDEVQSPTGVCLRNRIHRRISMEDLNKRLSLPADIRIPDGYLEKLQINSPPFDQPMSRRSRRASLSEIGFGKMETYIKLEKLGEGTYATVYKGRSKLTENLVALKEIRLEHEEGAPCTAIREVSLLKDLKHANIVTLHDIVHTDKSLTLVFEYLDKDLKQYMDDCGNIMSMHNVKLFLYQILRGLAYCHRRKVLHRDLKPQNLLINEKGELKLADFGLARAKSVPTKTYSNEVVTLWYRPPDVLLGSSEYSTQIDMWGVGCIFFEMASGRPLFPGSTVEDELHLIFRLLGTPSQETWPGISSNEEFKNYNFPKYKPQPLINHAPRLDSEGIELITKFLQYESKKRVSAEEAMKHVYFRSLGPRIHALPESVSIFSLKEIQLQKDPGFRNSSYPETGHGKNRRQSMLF
Active and inactive are the calls of the source.
Allowed answers: True = active, False = inactive

Hi, do you know how CO[C@H]1C[C@@H]2CC[C@@H](C)[C@@](O)(O2)C(=O)C(=O)N2CCCC[C@H]2C(=O)O[C@H]([C@H](C)C[C@@H]2CC[C@@H](OP(C)(C)=O)[C@H](OC)C2)CC(=O)[C@H](C)/C=C(\C)[C@@H](O)[C@@H](OC)C(=O)[C@H](C)C[C@H](C)/C=C/C=C/C=C/1C came out in this test? False

Hi, do you know how O=C1NC(=O)[C@@H](c2cn3c4c(cccc24)CCC3)[C@@H]1c1c[nH]c2ccccc12 [TIVANTINIB] came out in this test? False

Hi, do you know how CN1C/C=C/CCOc2cccc(c2)-c2ccnc(n2)Nc2cccc(c2)C1 came out in this test? False

Hi, do you know how CNC(=O)c1cc(Oc2ccc(NC(=O)Nc3cc(C(C)(C)C)nn3-c3ccc4ncccc4c3)c(F)c2)ccn1 came out in this test? True
